Run description: Single-dose two-period crossover bioequivalence study, fasting: plasma pharmacokinetics of lisinopril and amlodipine (LC-MS/MS, NCA);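 note: single tablet dose 10 mg/5 mg fixed combination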
Cond: human, plasma, po, Plasma concentration of amlodipine, Max, reference (R) tablets, nominal time 7 h, maximum over subjects
Metric name: concentration at 7 h (ng/mL)
Give bare numbers, in ng/mL.

Reported concentration at 7 h ( CCOC(=O)C1=C(COCCN)NC(C)=C(C(=O)OC)C1c1ccccc1Cl (stereo not shown) [amlodipine] ) = 2.76

###

Run description: Single-dose two-period crossover bioequivalence study, fed (high-fat breakfast): plasma pharmacokinetics of lisinopril and amlodipine (LC-MS/MS, NCA)
Cond: human, plasma, po, Plasma concentration of lisinopril, Min, minimum among subjects, nominal time 96 h, reference (R) tablets
Metric name: concentration at 96 h

concentration at 96 h reported for this molecule "NCCCC[C@H](N[C@@H](CCc1ccccc1)C(=O)O)C(=O)N1CCC[C@H]1C(=O)O" : 0.564 ng/mL

###

Run description: Single-dose two-period crossover bioequivalence study, fasting: plasma pharmacokinetics of lisinopril and amlodipine (LC-MS/MS, NCA);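 note: single tablet dose 10 mg/5 mg fixed combination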
Cond: human, plasma, po, Plasma concentration of amlodipine, Mean, reference (R) tablets, nominal time 3 h, mean of subjects
Metric name: concentration at 3 h (ng/mL)
Numbers only, in ng/mL.

Measured concentration at 3 h of CCOC(=O)C1=C(COCCN)NC(C)=C(C(=O)OC)C1c1ccccc1Cl (stereo not shown) : 1.51

###

Run description: Single-dose two-period crossover bioequivalence study, fed (high-fat breakfast): plasma pharmacokinetics of lisinopril and amlodipine (LC-MS/MS, NCA)
Cond: human, plasma, po, Plasma concentration of lisinopril, Max, maximum among subjects, nominal time 5 h, reference (R) tablets
Metric name: concentration at 5 h (ng/mL)
One number for each entry, in ng/mL.

Briefly, concentration at 5 h measured for NCCCC[C@H](N[C@@H](CCc1ccccc1)C(=O)O)C(=O)N1CCC[C@H]1C(=O)O [lisinopril] : 29.7

###

Run description: Single-dose two-period crossover bioequivalence study, fasting: plasma pharmacokinetics of lisinopril and amlodipine (LC-MS/MS, NCA);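 note: single tablet dose 10 mg/5 mg fixed combination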
Cond: human, plasma, po, Plasma concentration of amlodipine, Mean, reference (R) tablets, nominal time 0 h, mean of subjects
Metric name: concentration at 0 h (ng/mL)
Give bare numbers, in ng/mL.

The molecule CCOC(=O)C1=C(COCCN)NC(C)=C(C(=O)OC)C1c1ccccc1Cl (stereo not shown) [amlodipine] showed concentration at 0 h equal to 0

###

Run description: Single-dose two-period crossover bioequivalence study, fed (high-fat breakfast): plasma pharmacokinetics of lisinopril and amlodipine (LC-MS/MS, NCA)
Cond: human, in vivo, po, Plasma concentration of lisinopril, Mean, mean of 36 subjects, nominal time 10 h, reference (R) tablets
Metric name: concentration at 10 h (ng/mL)
Answers are plain numbers, in ng/mL.

Memo: NCCCC[C@H](N[C@@H](CCc1ccccc1)C(=O)O)C(=O)N1CCC[C@H]1C(=O)O [lisinopril] , reported concentration at 10 h: 12.9

###

Run description: Single-dose two-period crossover bioequivalence study, fasting: plasma pharmacokinetics of lisinopril and amlodipine (LC-MS/MS, NCA);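 note: single tablet dose 10 mg/5 mg fixed combination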
Cond: human, plasma, po, Plasma concentration of amlodipine, Mean, reference (R) tablets, nominal time 4 h, mean of subjects
Metric name: concentration at 4 h (ng/mL)
Answers are plain numbers, in ng/mL.

Data point: CCOC(=O)C1=C(COCCN)NC(C)=C(C(=O)OC)C1c1ccccc1Cl (stereo not shown) ; concentration at 4 h = 1.6
